Each recorded value in this set is attributed to patent US9708336B2.

# measured-on: VIM-1 (Pseudomonas aeruginosa (strain ATCC 15692 / DSM 22644 / CIP 104116 / JCM 14847 / LMG 12228 / 1C / PRS 101 / PAO1))
# assay-notes: Enzyme activity: determination of IC50, fluorescence assay with CCF2-FA substrate (VIM-1)
# Format: biochemical
# experimental-setup: VIM-1 enzyme, CCF2-FA substrate; read-out: VIM-1 IC50
pIC50: −log10 of the molar value.
measured-attribute: pIC50

>>> measured("NS(=O)(=O)c1c(C(F)(F)F)ccc(-c2cnc3[nH]ccc3c2)c1-c1nnn[nH]1")
9.84
>>> measured("NS(=O)(=O)c1c(C(F)(F)F)ccc([C@H]2CC[C@H](NC3CCNC3)CC2)c1-c1nnn[nH]1 (stereo partly shown)")
8.62
>>> measured("Nc1nc2c(-c3ccc(CC4CCC4)c(S(N)(=O)=O)c3-c3nn[nH]n3)cccc2s1")
8.57
>>> measured("CC1(O)CCN(c2ccc(C(F)(F)F)c(S(N)(=O)=O)c2-c2nnn[nH]2)CC1")
8.35

====

# measured-on: IMP-1 (Serratia marcescens, UniProt P52699)
# Sequence (P52699 whole entry, looked up): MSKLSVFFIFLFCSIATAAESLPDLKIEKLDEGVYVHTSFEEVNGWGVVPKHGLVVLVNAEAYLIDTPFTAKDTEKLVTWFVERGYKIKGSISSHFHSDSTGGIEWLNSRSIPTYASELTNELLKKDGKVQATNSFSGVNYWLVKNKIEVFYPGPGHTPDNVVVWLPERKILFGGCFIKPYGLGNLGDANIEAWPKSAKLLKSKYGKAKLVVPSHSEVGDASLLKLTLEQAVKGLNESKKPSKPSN
# assay-notes: biochemical
# Format: biochemical
# experimental-setup: IMP-1 enzyme, CCF2-FA substrate; read-out: IMP-1 IC50
pIC50: −log10 of the molar value.
Each entry below carries its reported pIC50.
measured-attribute: pIC50

>>> measured("NS(=O)(=O)c1c(CC2CCN(CCO)CC2)ccc(-c2ccc(C3CNC3)cc2)c1-c1nn[nH]n1")
7.37
>>> measured("NC1CCC(N[C@H]2CC[C@H](c3ccc(C(F)(F)F)c(S(N)(=O)=O)c3-c3nnn[nH]3)CC2)C1 (stereo partly shown) [Example 691]")
7.29
>>> measured("NCCCCNc1nc2c(-c3cccc(S(N)(=O)=O)c3-c3nnn[nH]3)cccc2s1")
7.28
>>> measured("Nc1ccc2cccc(-c3ccc(C(F)(F)F)c(S(N)(=O)=O)c3-c3nn[nH]n3)c2n1")
9.09
>>> measured("CNC1CCc2c(-c3ccc(C(F)(F)F)c(S(N)(=O)=O)c3-c3nnn[nH]3)cccc21 (stereo not shown)")
7.23
>>> measured("NC[C@H]1CC[C@@H](Cc2ccc(-c3ccc(N)nc3)c(-c3nnn[nH]3)c2S(N)(=O)=O)CC1")
7.64
>>> measured("Nc1nc2cccc(-c3ccc(CC4CCNCC4)c(S(N)(=O)=O)c3-c3nn[nH]n3)c2[nH]1")
7.18

====

# measured-on: NDM-1 (Klebsiella pneumoniae, UniProt C7C422)
# Sequence (C7C422 whole entry, looked up, species assumed): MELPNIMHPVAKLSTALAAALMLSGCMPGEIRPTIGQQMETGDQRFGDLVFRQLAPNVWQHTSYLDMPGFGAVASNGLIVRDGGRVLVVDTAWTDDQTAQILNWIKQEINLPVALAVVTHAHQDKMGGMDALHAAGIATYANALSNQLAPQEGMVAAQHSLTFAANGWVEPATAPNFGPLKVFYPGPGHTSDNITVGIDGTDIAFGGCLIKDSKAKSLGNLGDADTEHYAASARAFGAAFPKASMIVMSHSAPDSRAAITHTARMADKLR
# assay-notes: biochemical
# Format: biochemical
# experimental-setup: NDM-1 enzyme, CCF2-FA substrate; read-out: NDM-1 IC50
Threshold-based label: IC50 under 2 nM gives T, IC50 not under 2 nM gives F.

>>> class_assignment("NC[C@H]1CC[C@H](Cc2ccc(-c3ccc(C4CCNC4)cc3)c(-c3nnn[nH]3)c2S(N)(=O)=O)CC1 (stereo partly drawn)")
"F"
>>> class_assignment("NCCCN1CCC(c2ccc(-c3cccc(S(N)(=O)=O)c3-c3nnn[nH]3)cc2)CC1")
"F"
>>> class_assignment("NS(=O)(=O)c1c(C(F)(F)F)ccc(-c2ccc3c(c2)CCNC3)c1-c1nnn[nH]1")
"F"
>>> class_assignment("NC1CCC(N[C@H]2CC[C@H](c3ccc(C(F)(F)F)c(S(N)(=O)=O)c3-c3nnn[nH]3)CC2)CC1 (stereo partly drawn) [Example 701]")
"F"
>>> class_assignment("N#Cc1cc(-c2ccc(C(F)(F)F)c(S(N)(=O)=O)c2-c2nnn[nH]2)c2[nH]c(N)nc2c1")
"T"
>>> class_assignment("NS(=O)(=O)c1c(C(F)(F)F)ccc(-c2ccc(C3CCN(C[C@H]4CNCCO4)CC3)cc2)c1-c1nnn[nH]1")
"F"
>>> class_assignment("Cc1ccc(-c2ccc(C(F)(F)F)c(S(N)(=O)=O)c2-c2nnn[nH]2)c2[nH]c(N)nc12")
"T"
>>> class_assignment("Nc1nc2cccc(-c3ccc(C(F)(F)F)c(S(N)(=O)=O)c3-c3nnn[nH]3)c2[nH]1")
"T"
>>> class_assignment("Nc1nc2cc(-c3ccc(CC4CNC4)c(S(N)(=O)=O)c3-c3nn[nH]n3)ccc2[nH]1")
"F"
>>> class_assignment("NS(=O)(=O)c1c(C(F)(F)F)ccc(-c2ccc(C3CCN(CC4CCCNC4)CC3)cc2)c1-c1nnn[nH]1 (stereo not drawn)")
"F"
>>> class_assignment("NC[C@H]1CC[C@H](c2ccc(CCC3CCNCC3)c(S(N)(=O)=O)c2-c2nnn[nH]2)CC1")
"F"
>>> class_assignment("NS(=O)(=O)c1cccc(-c2cccc3sc(NC4CCN(CCF)CC4)nc23)c1-c1nnn[nH]1")
"T"
>>> class_assignment("NS(=O)(=O)c1c(CC[C@H]2CC[C@@H](N)CC2)ccc(-c2ccc(C3CCNC3)cc2)c1-c1nnn[nH]1 (stereo partly drawn)")
"F"
>>> class_assignment("NCCN1CCC(Cc2ccc(-c3ccc(C4CNC4)cc3)c(-c3nn[nH]n3)c2S(N)(=O)=O)CC1")
"F"
>>> class_assignment("CC(C)[C@H](N)CN1CCC(c2ccc(-c3cccc(S(N)(=O)=O)c3-c3nnn[nH]3)cc2)CC1")
"F"
>>> class_assignment("NS(=O)(=O)c1c(C(F)(F)F)ccc(N2CCC(CCO)CC2)c1-c1nnn[nH]1")
"T"
>>> class_assignment("Nc1nc2cccc(-c3ccc(C(F)(F)F)c(S(N)(=O)=O)c3-c3nnn[nH]3)c2s1")
"T"
>>> class_assignment("NS(=O)(=O)c1c(C(F)(F)F)ccc(-c2snc3ncccc23)c1-c1nnn[nH]1")
"F"
>>> class_assignment("Nc1ncc(CCc2ccc(C(F)(F)F)c(S(N)(=O)=O)c2-c2nn[nH]n2)cc1CO")
"F"
>>> class_assignment("Nc1ncc2cccc(-c3ccc(C(F)(F)F)c(S(N)(=O)=O)c3-c3nn[nH]n3)c2n1")
"T"
>>> class_assignment("CC(C)[C@@H](N)CN1CCC(c2ccc(-c3cccc(S(N)(=O)=O)c3-c3nnn[nH]3)cc2)CC1")
"F"
>>> class_assignment("Cc1n[nH]c2c1CN(c1ccc(C(F)(F)F)c(S(N)(=O)=O)c1-c1nnn[nH]1)CC2")
"T"
>>> class_assignment("NS(=O)(=O)c1c(CC2CNC2)ccc(-c2cnc3ccccn23)c1-c1nn[nH]n1")
"F"
>>> class_assignment("NCCCNc1nc2c(-c3cccc(S(N)(=O)=O)c3-c3nnn[nH]3)cccc2s1")
"F"
>>> class_assignment("Nc1cccc2c(-c3ccc(C(F)(F)F)c(S(N)(=O)=O)c3-c3nn[nH]n3)cc(C(=O)O)nc12")
"T"
>>> class_assignment("NS(=O)(=O)c1cccc(-c2cnc3ccc(Cl)nn23)c1-c1nnn[nH]1")
"F"
>>> class_assignment("Nc1ccc(-c2ccc(C[C@H]3CC[C@@H](N)CC3)c(S(N)(=O)=O)c2-c2nnn[nH]2)cn1")
"T"
>>> class_assignment("Nc1nc2c(-c3ccc(CCC(=O)O)c(S(N)(=O)=O)c3-c3nn[nH]n3)cccc2s1")
"T"
>>> class_assignment("NCCN1CCC(c2ccc(-c3cccc(S(N)(=O)=O)c3-c3nnn[nH]3)cc2)CC1")
"F"
>>> class_assignment("NC(=O)c1cc2cccc(-c3ccc(C(F)(F)F)c(S(N)(=O)=O)c3-c3nn[nH]n3)c2[nH]1")
"T"
